target_system: UTP:LmUGP complex
assay_method_text: Four-states binding model, metal binding to UTP in complex with LmUGP (KD4)
experimental_conditions: approximated by nonlinear least-squares minimization of the four-states model from KD1-3
pKd: −log10 of the molar value.

given_smiles | pKd
[Cl][Ce]([Cl])[Cl] | 4.77
[Cl][La]([Cl])[Cl] | 4.82
[Cl][Lu]([Cl])[Cl] | 4.34
[Cl][Eu]([Cl])[Cl] | 4.42
[Cl-].[Cl-].[Mg+2] | 3.94
